# Target system: human ether-à-go-go-related gene (hERG) potassium channel (human)
# Assay protocol: primary screen, population patch clamp on CHO cells stably expressing hERG; higher = less effect of the substance
The whole screen tested about 310,000 compounds, of which about 2,200 (0.71%) showed an effect of 50% or more. Effects have a minus sign here. Only a selection was taken, and strong results are over-represented in it overall.
Reported hERG current change (%, negative = inhibition) at 1uM values for the following compounds.
Measured metric: hERG current change (%, negative = inhibition) at 1uM (%)

{"Compound": "Cc1ccc(S(=O)(=O)N2CCN(C(=O)CN3CCCSc4ccccc43)CC2)cc1", "Target system": "human ether-à-go-go-related gene (hERG) potassium channel (human)", "Obs value": 3.85}
{"Compound": "Nc1nc(SCC(=O)c2cccc([N+](=O)[O-])c2)n[nH]1", "Target system": "human ether-à-go-go-related gene (hERG) potassium channel (human)", "Obs value": 5.93}
{"Compound": "O=S(=O)(NC1CC1)c1ccc(F)c(F)c1", "Target system": "human ether-à-go-go-related gene (hERG) potassium channel (human)", "Obs value": 10.1}
{"Compound": "CNC(=O)CSc1nc(-c2ccccc2)c(-c2ccccc2)[nH]1", "Target system": "human ether-à-go-go-related gene (hERG) potassium channel (human)", "Obs value": 3.72}
{"Compound": "Cc1ccc(OCC(=O)NNC(=O)CSc2nnc(-c3ccc(C)cc3)n2C)cc1", "Target system": "human ether-à-go-go-related gene (hERG) potassium channel (human)", "Obs value": 7.24}
{"Compound": "O=C(Nc1ccc(-c2csc(Nc3ccccc3)n2)cc1)c1cc([N+](=O)[O-])cc(C(F)(F)F)c1", "Target system": "human ether-à-go-go-related gene (hERG) potassium channel (human)", "Obs value": 4.72}
{"Compound": "O=C(NNC(=O)c1ccccc1[N+](=O)[O-])c1csc(N2CCOCC2)n1", "Target system": "human ether-à-go-go-related gene (hERG) potassium channel (human)", "Obs value": 0.109}
{"Compound": "O=C(CSc1ccccc1)Nc1ccc2c(c1)OCCO2", "Target system": "human ether-à-go-go-related gene (hERG) potassium channel (human)", "Obs value": 8.08}
{"Compound": "CC1(c2ccc(OC(F)F)cc2)NC(=O)N(CC(=O)Nc2ccc(N3CCCCC3)cc2)C1=O (stereo not shown)", "Target system": "human ether-à-go-go-related gene (hERG) potassium channel (human)", "Obs value": 18}
{"Compound": "CCOC(=O)c1c(NC(=O)c2ccccc2C(=O)O)sc2c1CCC2", "Target system": "human ether-à-go-go-related gene (hERG) potassium channel (human)", "Obs value": 2.17}

* * *

# Target system: human ether-à-go-go-related gene (hERG) potassium channel (human, UniProt Q12809)
# Sequence (Q12809 whole entry, looked up): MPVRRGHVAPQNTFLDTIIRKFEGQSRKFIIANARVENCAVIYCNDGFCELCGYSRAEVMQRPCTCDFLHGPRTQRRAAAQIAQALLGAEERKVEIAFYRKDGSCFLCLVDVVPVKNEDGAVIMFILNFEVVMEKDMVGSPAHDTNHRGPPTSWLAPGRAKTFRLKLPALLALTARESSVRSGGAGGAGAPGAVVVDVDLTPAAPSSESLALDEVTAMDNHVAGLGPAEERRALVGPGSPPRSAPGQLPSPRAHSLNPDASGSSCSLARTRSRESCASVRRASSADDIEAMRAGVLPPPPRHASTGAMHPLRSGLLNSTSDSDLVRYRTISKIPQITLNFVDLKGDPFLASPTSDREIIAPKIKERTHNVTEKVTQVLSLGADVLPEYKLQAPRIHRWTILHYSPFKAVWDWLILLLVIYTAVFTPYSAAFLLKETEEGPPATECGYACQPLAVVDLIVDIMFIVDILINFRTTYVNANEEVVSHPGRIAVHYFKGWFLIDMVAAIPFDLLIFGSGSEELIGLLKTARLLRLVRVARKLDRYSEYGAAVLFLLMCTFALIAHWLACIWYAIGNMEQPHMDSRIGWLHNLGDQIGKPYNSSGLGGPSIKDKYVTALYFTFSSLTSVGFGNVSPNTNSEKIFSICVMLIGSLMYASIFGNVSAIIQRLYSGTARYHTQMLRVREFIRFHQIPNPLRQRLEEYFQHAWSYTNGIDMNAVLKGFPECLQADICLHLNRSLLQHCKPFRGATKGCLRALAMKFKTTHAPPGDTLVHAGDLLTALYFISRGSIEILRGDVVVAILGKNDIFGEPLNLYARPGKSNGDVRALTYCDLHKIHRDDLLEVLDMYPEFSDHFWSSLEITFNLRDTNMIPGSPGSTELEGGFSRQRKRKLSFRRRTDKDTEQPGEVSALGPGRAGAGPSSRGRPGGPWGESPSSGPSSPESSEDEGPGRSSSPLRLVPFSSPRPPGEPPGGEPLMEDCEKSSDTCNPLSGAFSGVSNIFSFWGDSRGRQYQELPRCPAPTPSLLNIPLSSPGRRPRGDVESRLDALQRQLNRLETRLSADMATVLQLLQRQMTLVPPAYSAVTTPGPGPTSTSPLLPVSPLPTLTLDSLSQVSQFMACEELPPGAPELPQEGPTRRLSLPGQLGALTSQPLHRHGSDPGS
# Assay protocol: primary screen, population patch clamp on CHO cells stably expressing hERG; higher = less effect of the substance
The whole screen tested about 310,000 compounds, of which about 2,200 (0.71%) showed an effect of 50% or more. Effects have a minus sign here. Only a selection was taken, and strong results are over-represented in it overall.
I would appreciate it if you labelled entries Fulfilled when hERG current change (%, negative = inhibition) at 1uM is 10% or higher, otherwise Not fulfilled.

{"Item smiles": "Cc1nc2cc(NC(=O)NCc3ccccc3)ccc2o1", "Target system": "human ether-à-go-go-related gene (hERG) potassium channel (human, UniProt Q12809)", "Cat": "Fulfilled"}
{"Item smiles": "CCc1ccc(CNC(=O)Cn2nc(-c3ccccc3)ccc2=O)cc1", "Target system": "human ether-à-go-go-related gene (hERG) potassium channel (human, UniProt Q12809)", "Cat": "Not fulfilled"}
{"Item smiles": "O=C(/C=C/c1ccc(S(=O)(=O)NCc2ccco2)cc1)N1CCN(c2ccccc2)CC1", "Target system": "human ether-à-go-go-related gene (hERG) potassium channel (human, UniProt Q12809)", "Cat": "Not fulfilled"}
{"Item smiles": "CCOC(=O)C1CCN(CC(=O)c2ccc(O)c(C)c2O)CC1", "Target system": "human ether-à-go-go-related gene (hERG) potassium channel (human, UniProt Q12809)", "Cat": "Fulfilled"}
{"Item smiles": "CCOC(=S)SCC(=O)Nc1nc(-c2ccc(Br)cc2)cs1", "Target system": "human ether-à-go-go-related gene (hERG) potassium channel (human, UniProt Q12809)", "Cat": "Not fulfilled"}
{"Item smiles": "C[C@H](OC(=O)n1ccnc1)[C@@H]1O[C@@]2(C)CCC[C@@H]1O2", "Target system": "human ether-à-go-go-related gene (hERG) potassium channel (human, UniProt Q12809)", "Cat": "Fulfilled"}
{"Item smiles": "COc1cc2c3nnc(-c4ccc(F)cc4)c-3cn(Cc3ccc(C)cc3)c2cc1OC", "Target system": "human ether-à-go-go-related gene (hERG) potassium channel (human, UniProt Q12809)", "Cat": "Fulfilled"}
{"Item smiles": "CCOC(=S)SCC(=O)Nc1nc(-c2ccccc2)cs1", "Target system": "human ether-à-go-go-related gene (hERG) potassium channel (human, UniProt Q12809)", "Cat": "Fulfilled"}
{"Item smiles": "CCOC(=O)N1CCN(C(=O)CSCC(=O)Nc2nc(-c3ccc(C)cc3)cs2)CC1", "Target system": "human ether-à-go-go-related gene (hERG) potassium channel (human, UniProt Q12809)", "Cat": "Not fulfilled"}
